The reported measurements were obtained from FireProtDB (doi:10.1021/bi992119u).

B1: Steroid Delta-isomerase, P07445 (parent)
chain: MNLPTAQEVQGLMARYIELVDVGDIEAIVQMYADDATVEDPFGQPPIHGREQIAAFYRQGLGGGKVRACLTGPVRASHNGCGAMPFRVEMVWNGQPCALDVIDVMRFDEHGRIQTMQAYWSEVNLSVREPQ

# Variants of: B1
# setup conditions: Pseudomonas putida; pH 7; 25 °C; Urea; CD; Sodium phosphate 25 mM; reversible: yes; structure 1OH0; whole UniProt chain shown
outcome measure: denaturant midpoint (higher = more stable) (M)
Express the result in M but write the number alone.

Query block: # return recorded denaturant midpoint (higher = more stable) for entry Y32F Y57F
Result block: 5.81

Query block: Tell us which denaturant midpoint (higher = more stable) value is on record for `Y32F`
Result block: 5.49

Query block: Give the value of denaturant midpoint (higher = more stable) reported for the following: Y32F V101L
Result block: 4.45

Query block: Provide measured denaturant midpoint (higher = more stable) value, entry: `V101L`
Result block: 4.19

Query block: Name the recorded denaturant midpoint (higher = more stable) of the item `Y16F` in your answer.
Result block: 4.3

Query block: Annotate the variant `Y57F` with its measured denaturant midpoint (higher = more stable).
Result block: 4.77

Query block: Identify the reported denaturant midpoint (higher = more stable) for the following entry. Y57F V101L
Result block: 4.25
